Task for the reader: assign each of the following molecules its reported hEphA2-SEAP-: absorbance at 450 nm, percentage with respect to hEphA4-SEAP-His as 100%.
# tested_on: T1, human EphA2 (Homo sapiens, UniProt P29317)
# T1 construct: a protein of the extracellular region of each human Eph receptor fused with the SEAP protein and the His tag; made in house; host or cells: Expi293F cells (culture supernatant)
# protocol_notes: Selectivity ELISA of humanized antibodies for human Eph receptor
# Format: binding
# measurement_setup: coated protein 1 nM
Answer in %, number only, no unit symbol.

Entry under review: 69 (antibody, V domains shown, synthetic humanized antibody heavy chain variable region sequence; synthetic humanized antibody light chain variable region sequence) VH: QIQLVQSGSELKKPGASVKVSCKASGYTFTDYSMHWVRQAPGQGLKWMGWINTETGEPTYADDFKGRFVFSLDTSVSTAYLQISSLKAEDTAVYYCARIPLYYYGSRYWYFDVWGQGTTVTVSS VL: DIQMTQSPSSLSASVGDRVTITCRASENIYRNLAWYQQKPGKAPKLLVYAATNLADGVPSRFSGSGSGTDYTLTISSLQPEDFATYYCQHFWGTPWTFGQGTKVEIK . Reported hEphA2-SEAP-: absorbance at 450 nm, percentage with respect to hEphA4-SEAP-His as 100%?
5.5

Entry under review: 143 (antibody, V domains shown, synthetic humanized antibody heavy chain variable region sequence; synthetic humanized antibody light chain variable region sequence) VH: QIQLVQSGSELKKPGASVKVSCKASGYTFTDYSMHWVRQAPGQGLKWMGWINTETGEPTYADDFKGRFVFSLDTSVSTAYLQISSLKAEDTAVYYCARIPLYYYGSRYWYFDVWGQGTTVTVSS VL: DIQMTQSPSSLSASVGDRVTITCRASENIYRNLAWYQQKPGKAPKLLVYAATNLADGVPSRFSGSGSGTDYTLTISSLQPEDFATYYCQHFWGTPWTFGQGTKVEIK . Reported hEphA2-SEAP-: absorbance at 450 nm, percentage with respect to hEphA4-SEAP-His as 100%?
5.7

Entry under review: 84 (antibody, V domains shown, constant regions without entry; synthetic humanized antibody light chain variable region sequence; synthetic humanized antibody heavy chain variable region sequence) VL: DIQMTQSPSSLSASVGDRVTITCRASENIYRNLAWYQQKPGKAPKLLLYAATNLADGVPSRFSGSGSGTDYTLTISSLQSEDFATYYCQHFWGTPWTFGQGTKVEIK VH: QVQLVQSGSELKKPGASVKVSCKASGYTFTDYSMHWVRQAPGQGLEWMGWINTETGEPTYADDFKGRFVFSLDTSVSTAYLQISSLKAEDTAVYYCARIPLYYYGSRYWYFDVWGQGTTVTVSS . Reported hEphA2-SEAP-: absorbance at 450 nm, percentage with respect to hEphA4-SEAP-His as 100%?
4.9

Entry under review: 67 (antibody, V domains shown, synthetic humanized antibody heavy chain variable region sequence; synthetic humanized antibody light chain variable region sequence) VH: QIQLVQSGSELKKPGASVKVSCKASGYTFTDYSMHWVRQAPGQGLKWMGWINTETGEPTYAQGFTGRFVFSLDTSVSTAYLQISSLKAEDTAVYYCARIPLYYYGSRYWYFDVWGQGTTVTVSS VL: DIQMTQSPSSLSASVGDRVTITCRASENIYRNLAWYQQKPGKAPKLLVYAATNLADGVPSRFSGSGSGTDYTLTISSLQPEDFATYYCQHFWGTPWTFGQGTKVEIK . Reported hEphA2-SEAP-: absorbance at 450 nm, percentage with respect to hEphA4-SEAP-His as 100%?
4.6

Entry under review: 81 (antibody, V domains shown, constant regions without entry; synthetic humanized antibody light chain variable region sequence; synthetic humanized antibody heavy chain variable region sequence) VL: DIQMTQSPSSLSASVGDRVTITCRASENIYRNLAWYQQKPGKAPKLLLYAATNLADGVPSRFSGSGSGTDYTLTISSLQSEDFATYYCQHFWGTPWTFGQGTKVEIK VH: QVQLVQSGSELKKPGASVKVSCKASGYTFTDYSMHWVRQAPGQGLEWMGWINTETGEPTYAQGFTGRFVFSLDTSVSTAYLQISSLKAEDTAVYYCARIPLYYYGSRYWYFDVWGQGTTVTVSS . Reported hEphA2-SEAP-: absorbance at 450 nm, percentage with respect to hEphA4-SEAP-His as 100%?
4.8

Entry under review: 96 (antibody, V domains shown, constant regions without entry; synthetic humanized antibody light chain variable region sequence; synthetic humanized antibody heavy chain variable region sequence) VL: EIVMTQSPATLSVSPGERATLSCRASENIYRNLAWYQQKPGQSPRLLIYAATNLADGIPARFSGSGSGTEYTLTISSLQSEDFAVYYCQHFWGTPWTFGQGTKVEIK VH: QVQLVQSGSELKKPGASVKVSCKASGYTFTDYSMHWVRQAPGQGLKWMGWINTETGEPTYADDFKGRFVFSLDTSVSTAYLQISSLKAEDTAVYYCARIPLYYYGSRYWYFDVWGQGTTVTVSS . Reported hEphA2-SEAP-: absorbance at 450 nm, percentage with respect to hEphA4-SEAP-His as 100%?
5.3

Entry under review: 140 (antibody, V domains shown, synthetic humanized antibody heavy chain variable region sequence; synthetic humanized antibody light chain variable region sequence) VH: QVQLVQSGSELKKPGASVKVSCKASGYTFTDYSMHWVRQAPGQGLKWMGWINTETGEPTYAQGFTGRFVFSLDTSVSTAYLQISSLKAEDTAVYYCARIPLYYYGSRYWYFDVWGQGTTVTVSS VL: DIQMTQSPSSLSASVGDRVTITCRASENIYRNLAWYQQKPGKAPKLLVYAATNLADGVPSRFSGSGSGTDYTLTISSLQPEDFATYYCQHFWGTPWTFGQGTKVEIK . Reported hEphA2-SEAP-: absorbance at 450 nm, percentage with respect to hEphA4-SEAP-His as 100%?
5.3

src = patent US10428140B2
